# target: T1, Human 46 mer peptide (RB exon of human CD45) (human)
# T1 construct: synthetic peptide; also called CD45RB 46 mer
# T1 peptide: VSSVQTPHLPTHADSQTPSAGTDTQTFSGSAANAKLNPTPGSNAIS
# experiment_summary: ELISA, well supernatant on coated peptide
Give measured ELISA reading for each item. Keep answers brief.
Numbers only.

Would you please look over these solved cases?
{"columns": ["binder", "experimental_result"],
 "data": [
  ["antibody in the supernatant of B cell culture well 227E10 (antibody, V domains shown) VH: QVHLVESGGGLVKPGGSLRLSCAASGFTFINYYMTWIRQAPGKGLEWVSYISLSGSTIYYADSVKGRFTISRDNAKNSLFLQMNSLRAEDTAVYYCARRAATVTTFDYWGQGTLVTVSS VL: EIVMTQSPATLSVSPGERATLSCRASQSVRSNLAWSQQKPGQAPRLLIYGASTRATGIPARFSGSGSGTEFTLTISSLQSEDFAVYYCQQYNNWPLTFGGGTKVEIK", 0.2],
  ["antibody in the supernatant of B cell culture well 255D9 (antibody, V domains shown, recombinant 713 came from this well) VH: QVQLVESGGGVVQPGRSLRLSCAASGFTFSNYGMHWVRQAPGKGLEWVAVIWYDGSKKFYADSVKGRFTISRDNFEKTLYLQMNSLRAEDTAVYYCARGGGDFDYWGQGTLVTVSS VL: EIVMTQSPATLSVSPGERATLSCRASQSLSGSYLAWYQQKPGQAPRLLIYSASTRATGIPARFSGSGSGTEFTLTISSLQSEDFAVYYCQQYNNWPPLTFGGGTKVEIK", 3.5],
  ["antibody in the supernatant of B cell culture well 250F2 (antibody, V domains shown, recombinant 662 came from this well) VH: QVQLVESGGDLVKPGGSLRLSCAASGFSFSGYYLSWIRQAPGKGLEWVSYISLSGSFIKYADSVKGRFTISRDNAKKTLHLQMNSLRAEDTAVYYCARRTGTTTVFDYWGQGTLVTVSS VL: EVVMTQSPATLSVSPGERATLSCRASQSVNSNLAWYQQRPGQAPRLLIYGASTRVTGIPARFSGSGSGTEFTLTISSLQSEDFAVYYCQQYNNWPLTFGGGTKVEIK", 0.2]
]}

Now look at this entry.
Supply reported ELISA reading belonging to this binder: antibody in the supernatant of B cell culture well 283B2 (antibody, V domains shown, recombinant 648 came from this well) VH: QVQLVESGGGLVKPGGSLRLSCAASGFTFNVYYMNWIRQAPGKGLEWVSYISTSSSAIYYADSVKGRFTISRDNAKNSLYLQMNSLRAEDTAVYYCARRTGSTTVFDYWGQGTLVTVSS VL: EIVLTQSPATLSVSPGERATLSCRASQSINNNLAWYQQKPGQAPRLLIYGASTRATGIPAKFSGSGSGTEFTLTISSLQSENFAVYYCQQYNKWPLTFGGGTKVEIK
0.2
